- test_parameters: male, CD1, mouse, in vivo, po, 30 mg/kg
# label = label 1 if % AUCextrap, Total < 10% else label 0

1. Cc1nc(Nc2ncc(C(=O)Nc3c(C(F)F)csc3Cl)s2)cc(N2CCN(CCO)CC2)n1 ... label 1
2. Cc1nc(Nc2ncc(C(=O)Nc3c(CF)csc3Cl)s2)cc(N2CCN(C)C(C)C2)n1 (racemic) ... label 1
3. Cc1nc(Nc2ncc(C(=O)Nc3c(Cl)ccnc3C)s2)cc(N2CCN(CCO)CC2)n1 ... label 0
4. Cc1nc(Nc2ncc(C(=O)Nc3c(C)csc3Cl)s2)cc(N2CCN(CCO)CC2)n1 ... label 0
5. Cc1nc(Nc2ncc(C(=O)Nc3c(CF)csc3Cl)s2)cc(N2CCN(C)CC2)n1 ... label 1
